biological target: CPM (Homo sapiens (Human)); assay: carboxypeptidase CPM, metabolism of hippuryl-lysine; format: biochemical
Sequence (P14384 18-443, species assumed): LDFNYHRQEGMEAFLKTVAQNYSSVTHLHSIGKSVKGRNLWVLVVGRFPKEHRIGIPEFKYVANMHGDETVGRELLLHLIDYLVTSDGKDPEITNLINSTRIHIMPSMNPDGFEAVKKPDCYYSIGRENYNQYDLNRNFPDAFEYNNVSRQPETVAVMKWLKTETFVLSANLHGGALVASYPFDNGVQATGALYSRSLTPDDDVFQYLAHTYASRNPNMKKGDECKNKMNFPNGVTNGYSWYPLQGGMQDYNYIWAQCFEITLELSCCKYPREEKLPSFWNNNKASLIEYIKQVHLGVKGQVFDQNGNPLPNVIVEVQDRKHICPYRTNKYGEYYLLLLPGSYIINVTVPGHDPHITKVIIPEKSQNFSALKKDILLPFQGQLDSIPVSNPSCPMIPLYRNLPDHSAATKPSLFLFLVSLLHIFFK
MEASURED_METRIC: Ki (µM)
One number for each entry, in µM.

-- ask Any idea what Ki came out for c1cnc2c(c1)ccc1cccnc12 on CPM (Homo sapiens (Human))?
-- reply 394

---

molecular target: UniProtKB P14384
MEASURED_METRIC: pIC50
One number for each entry, as −log10 of the molar value.

-- ask # get_value(readout='pIC50', item= c1cnc2c(c1)ccc1cccnc12 )
-- reply 3.19

---

target: CPN (hCPN, partially purified from plasma) (Homo sapiens (Human), UniProt P15169); assay: carboxypeptidase CPN, metabolism of hippuryl-lysine
Sequence (P15169 21-458): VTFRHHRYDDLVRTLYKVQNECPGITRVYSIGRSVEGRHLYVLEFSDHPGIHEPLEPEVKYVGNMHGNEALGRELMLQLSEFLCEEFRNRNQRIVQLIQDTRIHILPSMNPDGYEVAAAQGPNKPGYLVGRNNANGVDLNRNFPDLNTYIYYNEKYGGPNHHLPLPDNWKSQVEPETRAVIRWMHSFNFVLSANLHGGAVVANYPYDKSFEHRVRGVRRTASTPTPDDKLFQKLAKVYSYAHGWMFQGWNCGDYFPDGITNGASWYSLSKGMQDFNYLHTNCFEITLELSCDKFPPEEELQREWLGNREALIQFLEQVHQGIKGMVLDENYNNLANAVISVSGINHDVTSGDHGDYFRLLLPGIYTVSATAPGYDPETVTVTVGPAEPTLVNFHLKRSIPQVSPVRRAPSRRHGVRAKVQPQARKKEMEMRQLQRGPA
Sequence (P22792 22-545 partner): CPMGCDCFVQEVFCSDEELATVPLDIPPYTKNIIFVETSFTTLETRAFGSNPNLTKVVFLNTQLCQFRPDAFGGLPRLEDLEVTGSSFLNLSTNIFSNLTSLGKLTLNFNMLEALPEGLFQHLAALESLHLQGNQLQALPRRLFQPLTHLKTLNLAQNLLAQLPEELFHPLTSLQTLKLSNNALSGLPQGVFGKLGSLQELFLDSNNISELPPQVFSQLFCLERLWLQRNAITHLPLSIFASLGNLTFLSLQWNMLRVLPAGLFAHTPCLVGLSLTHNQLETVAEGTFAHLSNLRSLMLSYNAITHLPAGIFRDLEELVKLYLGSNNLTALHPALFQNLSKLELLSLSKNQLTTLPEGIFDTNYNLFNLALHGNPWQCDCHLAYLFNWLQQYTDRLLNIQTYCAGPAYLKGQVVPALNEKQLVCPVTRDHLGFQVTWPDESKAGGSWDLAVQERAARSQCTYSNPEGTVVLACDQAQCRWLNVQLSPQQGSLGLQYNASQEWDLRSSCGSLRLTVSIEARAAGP
MEASURED_METRIC: pKi
One number for each entry, as −log10 of the molar value.

-- ask # get_value(readout='pKi', item= c1cnc2c(c1)ccc1cccnc12 [1,10-phenanthroline] )
-- reply 3.21
